B1: SNX8 (parent)
chain: RMVPALPPKRMLGADREFIEARRR

Variants of: B1
Assay: protein stability index of a GFP-peptide fusion (GPS, HEK-293T) (PSI 1-6); higher = more stable;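 also: lentivirally expressed fusions sorted by FACS into six bins by GFP to DsRed ratio, PSI derived from sequencing read proportions per bin multiplied by bin number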
Details: c terminus: a fixed tail appended
protein stability index by entry:

As a guide, the following entries are already answered.
residues	protein stability index
RMVPALPPKRMLGADRETIEARRR [F18T]	4.2
RMVPALPPKRMLGADKEFIEARRR [R16K]	3.71
RMVPALNPKRMLGADREFIEARRR [P7N]	3.45
RMVPALPPKRMLYADREFIEARRR [G13Y]	3.13
RMVPALPPKRMLGADREEIEARRR [F18E]	4.43
RMVPALPPKRMLGADREFIETRRR [A21T]	3.96
RMVPALPPKRMLGADREFIESRRR [A21S]	3.12
RMVPALPPKRMLGNDREFIEARRR [A14N]	4.72
RMRPALPPKRMLGADREFIEARRR [V3R]	3.94
RMVPALPLKRMLGADREFIEARRR [P8L]	3.17

What the record says about RMVPALPPKRMLGADREFIEARNR [R23N] : protein stability index is 3.94

What the record says about RMVPALPPKRMLGAPREFIEARRR [D15P] : protein stability index is 4.16

What the record says about RMVPALPPKRMLGADRKFIEARRR [E17K] : protein stability index is 4.19

What the record says about RMVPALPPKRMLGADFEFIEARRR [R16F] : protein stability index is 1.96

What the record says about RMFPALPPKRMLGADREFIEARRR [V3F] : protein stability index is 2.99

What the record says about MMVPALPPKRMLGADREFIEARRR [R1M] : protein stability index is 2.88

What the record says about RMVPALPPKRMLGADRVFIEARRR [E17V] : protein stability index is 2.81

What the record says about VMVPALPPKRMLGADREFIEARRR [R1V] : protein stability index is 3.18

What the record says about RMVPALPPKRMLQADREFIEARRR [G13Q] : protein stability index is 3.25

What the record says about RMVPALPPKRMLGADREFMEARRR [I19M] : protein stability index is 3.55

What the record says about RMVPALPPKRMLCADREFIEARRR [G13C] : protein stability index is 2.17

What the record says about RMVPALPNKRMLGADREFIEARRR [P8N] : protein stability index is 3.79
